Measured INHIBITION, listed per entry for reference.
System: Plasmodium berghei
EXPERIMENTAL DETAILS: Screen against P. berghei liver stage (PbLuc), transformed with Luciferase, at 2uM
Type: functional, HepG2
EXPERIMENTAL SETUP: tested at 2 uM
Out of some 68,000 compounds screened, about 2,700 (4%) showed an effect of 50% or more. The entries come from a sample that favours strong results as a whole.
Write down the value, and be sure its unit follows.

Some entries whose results are on file:
[
  {
    "MOLECULE": "O=C([C@H]1COC[C@H]2CN(c3ccncn3)C[C@H]21)N1CCCC1",
    "RESULT": "53.55%"
  },
  {
    "MOLECULE": "O=C(CCc1cc(F)ccc1F)NS(=O)(=O)c1ccc2c(c1)OCCO2",
    "RESULT": "66.28%"
  }
]

[in] Please look up its INHIBITION: Cc1ccsc1-c1nccn1CCS(C)(=O)=O
[out] 38.1%

[in] Would you mind telling me what INHIBITION value was observed for COC(=O)CCC(=O)NC(C)Cc1ccccc1Br (stereo not drawn) ?
[out] 2.7%

[in] Entry COc1cc2[nH]c(=O)c(CN3CCC[C@H]3CO)cc2c(OC)c1OC : reported INHIBITION = ?
[out] 63.1%

[in] Name the recorded INHIBITION for CCc1nn(C)c(Cl)c1CN(CCOC)Cc1cnn(C)c1 .
[out] -0.41%

[in] INHIBITION for O=C(CSc1ccc(F)cc1)NS(=O)(=O)c1ccc2c(c1)OCCO2 ?
[out] 13.91%
